test system: IL-2 secretion from Jurkat T cells; assay: IL-2 secretion from activated Jurkat T cells (ELISA); assay type: cell-based, human; conditions: 10 uM, experiment (2), relative to DMSO 0.1%
Quick reference for IL-2 % Control (2) among some compounds
result.type: IL-2 % Control (2) (%)

[[record]]
compound = "O[C@@H]1c2ccccc2C[C@]1(Cc1ccccc1)C1=Cc2ccccc2C1 (mixture of isomers)"
unit = "%"
meas_value = 97.70

[[record]]
compound = "O[C@H]1c2ccccc2C[C@]1(Cc1ccccc1)C1=Cc2ccccc2C1 (mixture of isomers)"
unit = "%"
meas_value = 55.36

[[record]]
compound = "O[C@H]1c2ccccc2C[C@]1(Cc1ccccc1)C1=Cc2ccccc2C1 (single isomer, unassigned)"
unit = "%"
meas_value = 131.09

[[record]]
compound = "O[C@@H]1c2ccccc2C[C@@]1(Cc1ccccc1)C1=Cc2ccccc2C1 (single isomer, unassigned)"
unit = "%"
meas_value = 69.83


These measurements were taken from patent US20150141523A1.
